Hello, the source for this data is patent US4937242A, in case you need it.

# Method Description: Water solubility test
# Type: physicochemical
# Recorded Conditions: powdered, 20°±5° C., within 30 minutes, read-out: Amount (ml) of water required to dissolve 1 g of the subject compounds (converted)
Property Label: solubility at 0.5 h (mg/mL)

A = CCOC(=O)CN1CCN(CC(C)(C)COC(=O)C2=C(C)NC(C)=C(C(=O)OC)C2c2cccc([N+](=O)[O-])c2)CC1 (stereo not drawn)
B = C=C(C)CN1CCN(CC(C)(C)COC(=O)C2=C(C)NC(C)=C(C(=O)OC)C2c2cccc([N+](=O)[O-])c2)CC1 (stereo not drawn)
C = COC(=O)C1=C(C)NC(C)=C(C(=O)OCCN(C)Cc2ccccc2)C1c1cccc([N+](=O)[O-])c1 (stereo not drawn) [Nicardipine, nicardipine, reference compound]
Kindly provide a descending ordering of the above molecules based on their solubility at 0.5 h. Provide the labels, sequenced as the question asks.
A, B, C
(A: 500 mg/mL, B: 312 mg/mL, C: 6.25 mg/mL)
